B1: Steroid hormone receptor ERR2, residues 100 to 176; numbered along this chain, O95718 (parent)
chain: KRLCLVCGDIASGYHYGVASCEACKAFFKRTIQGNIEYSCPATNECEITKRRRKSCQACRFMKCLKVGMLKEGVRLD

Variants of: B1
Assay: abundance fitness (aPCA) (normalised: wild type 0, dead -1); higher = more abundant; growth selection in yeast, the domain comes from the species named
Settings: Homo sapiens
In this section we review reported abundance fitness values for a set of variants.
// return a plain number; no unit text

Past entries and their recorded results:
{"mutation_label": "K63E", "meas_value": -0.596}
{"mutation_label": "P41W", "meas_value": -0.253}
{"mutation_label": "V6L", "meas_value": -0.836}
{"mutation_label": "L3Q", "meas_value": -0.055}
{"mutation_label": "K25R", "meas_value": 0.208}
{"mutation_label": "K63I", "meas_value": -0.461}
{"mutation_label": "E37H", "meas_value": -0.19}
{"mutation_label": "D9M", "meas_value": -0.216}

Per the record, S39V has abundance fitness of 0.294

Per the record, K63Q has abundance fitness of -0.21

Per the record, I36W has abundance fitness of -0.231

Per the record, R52T has abundance fitness of 0.039

Per the record, A11H has abundance fitness of -0.691

Per the record, R51Q has abundance fitness of 0.119

Per the record, E37L has abundance fitness of -0.657

Per the record, G8L has abundance fitness of -0.091

Per the record, K63F has abundance fitness of -0.931

Per the record, K54V has abundance fitness of 0.007

Per the record, K25V has abundance fitness of 0.344

Per the record, H15K has abundance fitness of -0.363

Per the record, E22Q has abundance fitness of -0.092

Per the record, A26I has abundance fitness of -0.334
